System: HOP-62 NSCLC
assay_overview: NCI tumour cell line growth inhibition, 48 h
The entries below come with measured TGI values attached.

[[record]]
compound = "COC(=O)C(=O)C(C(=O)C=C(C)C)C(=O)C(=O)Nc1cc(C(F)(F)F)ccc1Cl (stereo unspecified)"
observed_property = "TGI"
result = "> 100 µM"

[[record]]
compound = "Cc1c(F)c(N)c2c(=O)cc(-c3ccc(NC(=O)CN(C)C)c(F)c3)oc2c1F"
observed_property = "TGI"
result = "> 100 µM"

[[record]]
compound = "COc1ccc(-n2c(=O)c3[nH]cnc3n(-c3ccc(OC)cc3)c2=S)cc1"
observed_property = "TGI"
result = "> 100 µM"


(Q) Recorded TGI of CCCCN1C(=O)CC2[C@@H]3CCc4cc(OC(C)=O)ccc4C3CC[C@]2(C)C1=O (stereo partly specified) , please.
(A) > 10 µM

(Q) And for CC1(C)OCC(COC(=O)C=[N+]=[N-])O1 (stereo unspecified) ?
(A) > 100 µM

(Q) And for `Nc1cc(CO)cc(Nc2nc3ccc(Cl)cc3c3[nH]c4ccccc4c23)c1` ?
(A) 27.6 µM

(Q) And for `CC(C)c1ccc2[nH]c(O)c(-c3[nH]c4ccccc4c3N=O)c2c1` ?
(A) 25.2 µM

(Q) And for `O=C1/C(=C/c2ccccc2)N=C(c2ccccc2)N1n1c(-c2ccccc2)nc2ccccc2c1=O` ?
(A) > 100 µM

(Q) And for `CN(C)/N=N/c1nc2c(c(=O)n(C)c(=O)n2C)n1C` ?
(A) > 100 µM

(Q) And for `O=C(Nc1ccc(N2CCNCC2)cc1)c1[nH]ncc1Nc1cc(Oc2ccccc2)ncn1` ?
(A) 6.05 µM

(Q) And for `CC1=C(C(=O)Nc2ccc([N+](=O)[O-])cc2)C(c2ccc(N(C)C)cc2)C(C(=O)Nc2ccc([N+](=O)[O-])cc2)=C(C)N1` ?
(A) 27.5 µM

(Q) And for COc1ccc(C(C#N)NNC(=O)c2ccccc2O)cc1OC (stereo unspecified) ?
(A) > 100 µM

(Q) And for `Cc1ccc(CS/C(=C\c2ccc([N+](=O)[O-])cc2)C(=O)c2ccc(F)cc2)cc1` ?
(A) 29.2 µM

(Q) And for `C#CCCCCC#Cc1ccccc1C(=O)OC` ?
(A) > 100 µM

(Q) And for `O=c1oc2ccc(F)cc2c(=O)n1-c1ccc(F)cc1F` ?
(A) 8.05 µM

(Q) And for `CCCCNC1=C(C(=O)OCC)C(=O)CO1` ?
(A) > 100 µM

(Q) And for `O=C1NNC=Nc2ccc(cc2)S(=O)(=O)c2ccc(cc2)N=CNNC1=O` ?
(A) > 100 µM

(Q) And for `O=C(CN1CCOCC1)Nc1ccc(Cn2nnc3c2C(=O)c2nnn(Cc4ccc(NC(=O)CN5CCOCC5)cc4)c2C3=O)cc1` ?
(A) 3.46 µM

(Q) And for C=CCN1C(=O)/C(=C/c2ccccc2)N=C1SC1OC(COC(=O)c2ccccc2)C(OC(=O)c2ccccc2)C1OC(=O)c1ccccc1 (stereo unspecified) ?
(A) > 100 µM

(Q) And for `COc1cc2c3c(n(C)c(=O)c2cc1OC)-c1cc2c(cc1/C3=C\CCCN1C(=O)c3ccccc3C1=O)OCO2` ?
(A) > 40 µM

(Q) And for `O=C(CC(=O)n1nc(-c2ccccc2)c(N=Nc2ccccc2C(=O)O)c1-c1ccccc1)Nc1ccc(Cl)cc1` ?
(A) > 100 µM
